Measured Editing Efficiency 1 mM Theo by item
# Test system: galK 1 site
# PROTOCOL_DESCRIPTION: red/white colony screen of editing efficiency at the galK 1 site (CREATE recombineering)
# Assay type: cell-based, E. coli MG1655
# MEASUREMENT_CONTEXT: induced for 3 hours with 1 mM theophylline
// note: answer is a bare numeric in %

Please review the entries below; each comes with its answer.
> print(dat)
                                  substance                  readout.kind  reading
1  AU10: agRNA cassette ATAGGGCCATCCAT, SEQ ID NO: 24 (expressed or natural sequence)  Editing Efficiency 1 mM Theo       13
2  GU8: agRNA cassette GGCAGGCCTCTTCT, SEQ ID NO: 40 (expressed or natural sequence)  Editing Efficiency 1 mM Theo        1
3  AU15: agRNA cassette ACCCGGCCATTCAT, SEQ ID NO: 28 (expressed or natural sequence)  Editing Efficiency 1 mM Theo        5

From here, focus on the item given below.
Prompt line: Query: Editing Efficiency 1 mM Theo; subject: A10: agRNA cassette GATGGGCCTCCACC, SEQ ID NO: 9 (expressed or natural sequence)
Response line: 14

* * *

# Test system: galK 1 site
# PROTOCOL_DESCRIPTION: red/white colony screen of editing efficiency at the galK 1 site (CREATE recombineering)
# Assay type: cell-based, E. coli MG1655
# MEASUREMENT_CONTEXT: induced for 3 hours with 1 mM theophylline
READOUT_KIND: Editing Efficiency 1 mM Theo (%)
// note: answer is a bare numeric in %

Please review the entries below; each comes with its answer.
> print(dat)
                                  substance  reading
1  A1: agRNA cassette GGGGGGCCTATTTT, SEQ ID NO: 8 (expressed or natural sequence)       66
2  AU17: agRNA cassette AAAGGGCCAGGCAT, SEQ ID NO: 30 (expressed or natural sequence)        4
3  GC5: agRNA cassette GTTGGGCCGCGGAC, SEQ ID NO: 56 (expressed or natural sequence)        0

From here, focus on the item given below.
Prompt line: Can you look up Editing Efficiency 1 mM Theo on galK 1 site for AU3: agRNA cassette ACAAGGCCCATAAT, SEQ ID NO: 17 (expressed or natural sequence) ?
Response line: 72

* * *

Measured Editing Efficiency no Theo by item
# Tested on: galK 1 site
# PROTOCOL_DESCRIPTION: red/white colony screen of editing efficiency at the galK 1 site (CREATE recombineering)
# Assay type: cell-based, E. coli MG1655
# MEASUREMENT_CONTEXT: no theophylline, 3 hours recovery
// note: answer is a bare numeric in %

Prompt line: Query: Editing Efficiency no Theo; subject: G1B1: agRNA, 2×4 IL and upper stem cassette GTATCGCTTAAGCC, SEQ ID NO: 2 (expressed or natural sequence)
Response line: 1

Prompt line: Query: Editing Efficiency no Theo; subject: GC6: agRNA cassette GATTGGCCAGCAAC, SEQ ID NO: 57 (expressed or natural sequence)
Response line: 1

Prompt line: Query: Editing Efficiency no Theo; subject: AU8: agRNA cassette ACGGGGCCTAATAT, SEQ ID NO: 22 (expressed or natural sequence)
Response line: 0.3

Prompt line: Query: Editing Efficiency no Theo; subject: GU8: agRNA cassette GGCAGGCCTCTTCT, SEQ ID NO: 40 (expressed or natural sequence)
Response line: 0
